pKi: −log10 of the molar value.
Reported values: pKi for memapsin 2 (Homo sapiens, UniProt P56817), one per item.

Some solved entries appear below for comparison.
COCC(COC)N(C)C(=O)OC[C@@H](C1CCCCC1)N1Cc2cc(Oc3ccccc3)ccc2N=C1N :: > 5.30
Cc1csc(CN(C(=O)OC[C@@H](C2CCCCC2)N2Cc3cc(Oc4ccccc4)ccc3N=C2N)C2CCCCC2)n1 :: > 6.30
Cc1[nH]ncc1CN(CCC[C@@H](C1CCCCC1)N1Cc2cc(Oc3ccccc3)ccc2N=C1N)C1CCCCC1 :: > 7.30
Cc1csc(CN(CCC[C@@H](C2CCCCC2)N2Cc3cc(Oc4ccccc4)ccc3N=C2N)C2CCCCC2)n1 :: > 6.30

Task: # value lookup — system memapsin 2 (Homo sapiens, UniProt P56817), readout pKi, item CN(C(=O)OC[C@@H](C1CCCOC1)N1Cc2cc(Oc3ccccc3)ccc2N=C1N)C1CCCCC1 (some centres unmarked)
Result: > 6.30

Task: Under memapsin 2 (Homo sapiens, UniProt P56817): pKi value of CN(CCCC(C1CCOC1)N1Cc2cc(Oc3ccccc3)ccc2N=C1N)C1CCCCC1 (centres unmarked) ?
Result: > 6.30

Task: // fetch memapsin 2 (Homo sapiens, UniProt P56817) pKi for Cc1nc(C)c(CN(CCC[C@@H](C2CCCCC2)N2Cc3cc(Oc4ccccc4)ccc3N=C2N)C2CCCCC2)o1
Result: > 6.30

Task: Param readout= pKi; system= memapsin 2 (Homo sapiens, UniProt P56817); entry= NC1=Nc2ccc(Oc3ccccc3)cc2CN1[C@@H](CCNCC1CCCCC1)C1CCCCC1 ; returns value.
Result: > 6.30

Task: Notebook entry, memapsin 2 (Homo sapiens, UniProt P56817) assay: pKi of CN(CCC[C@@H](C1CCCOC1)N1Cc2cc(Oc3ccccc3)ccc2N=C1N)C1CCCCC1 (some centres unmarked) = ?
Result: > 6.30

Task: Short answer please: pKi, memapsin 2 (Homo sapiens, UniProt P56817), entry CN(CCC[C@@H](C1CCCCC1)N1Cc2cc(Oc3ccccc3)ccc2N=C1N)C1CCCCC1
Result: > 7.30

Task: Request: pKi, test system memapsin 2 (Homo sapiens, UniProt P56817), entry CN(C)CC[C@@H](C1CCCCC1)N1Cc2cc(Oc3ccccc3)ccc2N=C1N
Result: > 5.30
